System: NCI-H460
Assay: Antiproliferative activity against human NCI-H460 cells after 48 hrs by propidium iodide fluorescence assay
Type: functional, cell-based
Conditions: NCI-H460, 48 h
measured-metric: IC50 (µM)

Some compounds with recorded IC50:
substance-smiles	reported-result
COc1cccc(/C=C/C(=O)c2ccc(NC(=O)c3cc4cc5ccccc5nc4s3)cc2)c1	9.7
Cc1ccc2nc3sc(C(=O)Nc4ccc(C(=O)/C=C/c5ccc(Cl)cc5)cc4)cc3cc2c1	9.2

I: Cc1ccc2nc3sc(C(=O)Nc4ccc(C(=O)/C=C/c5ccccc5)cc4)cc3cc2c1
II: COc1ccc2nc3sc(C(=O)Nc4ccc(C(=O)/C=C/c5cc(OC)c(OC)c(OC)c5)cc4)cc3cc2c1
III: COc1ccc(/C=C/C(=O)c2ccc(NC(=O)c3cc4cc5cc(C)ccc5nc4s3)cc2)cc1OC
-- ask Sort entries by IC50 from minimum to maximum value. Reply with the labels, ordered as the question asks.
-- reply III, II, I
